- experimentalSystem: CovR (unphosphorylated) (Streptococcus pyogenes MGAS5005 …, UniProt O87527 1-228)
- assayNotes: fluorescence polarization; unphosphorylated; CovR FP: 1 nM fluorescein DNA, 20 mM Tris pH 7.5, 50 mM NaCl, 2 mM DTT, 10 ug/mL poly(dI:dC), 25 C; CcpA FP as in ref 30 (buffer not given), with or without 10
- details: protein: recombinant; chain copies: 2; label: fluorescein; hairpin (21 bp stem, C6 loop)
outcomeMeasure: Kd

• CAACCAAACTCTCATTAGAAACCCCCCTTTCTAATGAGAGTTTGGTTG (structured_DNA) [amyA promoter probe] = 245 nM
